PROTOCOL DESCRIPTION: CCTE_Shafer_MEA_dev_per_burst_spike_percent: CCTE's Neural Network Formation Assay for Percent of Spikes in a Burst, Shafer Lab (AID 2284032)
The source made the active and inactive calls. The calls were made as follows: active = hit-call score of the fitted dose curve at least 0.9, where 1 is the maximum; inactive = score below 0.9.
Return exactly one item of 1 (yes) for active, 0 (no) for inactive

Example entries begin here.
CC(C)(C)C(=O)C(Oc1ccc(Cl)cc1)n1cncn1 (configuration not stated) :: 1 (yes)
CN/C(=N\[N+](=O)[O-])NCc1cnc(Cl)s1 :: 0 (no)
C=C(C)CN(CC)c1c([N+](=O)[O-])cc(C(F)(F)F)cc1[N+](=O)[O-] :: 1 (yes)

Exam item: Called result for CS(=O)(=O)c1ccc(C(=O)C2C(=O)CCCC2=O)c([N+](=O)[O-])c1
Marked response: 0 (no)

Exam item: Would you mind telling me which call this test gave COC(=O)N(C(=O)N1CO[C@@]2(C(=O)OC)Cc3cc(Cl)ccc3C2=N1)c1ccc(OC(F)(F)F)cc1 ?
Marked response: 1 (yes)

Exam item: Hey, what did the test say about CCSC(=O)N1CCCCCC1 ?
Marked response: 0 (no)

Exam item: How did this test come out for CC1(C)C(C(=O)OC(C#N)c2cccc(Oc3ccccc3)c2)C1(C)C (configuration not stated) ?
Marked response: 1 (yes)

Exam item: Field: outcome | Entry: N#CN=C1SCCN1Cc1ccc(Cl)nc1
Marked response: 0 (no)

Exam item: Name the outcome recorded for CCNC(=O)NC(=O)C(C#N)=NOC in the assay.
Marked response: 0 (no)

###

Read-out: Monokine induced gamma interferon (MIG), CXCL9 (gene 4283)
PROTOCOL DESCRIPTION: BSK_BE3C_MIG: BioMAP Diversity Plus: BE3C Assay for Monokine induced gamma interferon (MIG) Biomarker Activity (AID 2283035);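 also: MIG protein measured by ELISA in BE3C cultures after 24 h of dosing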
MEASUREMENT CONDITIONS: primary human bronchial epithelial cells; actives raise or lower the signal
Active and inactive are the calls of the source. The calls were made as follows: active = hit-call score of the fitted dose curve at least 0.9, where 1 is the maximum; inactive = score below 0.9.
Outcomes you can answer with include only these: active, inactive

Examples from the recorded data:
COc1cc(OC)nc(NC(=O)NS(=O)(=O)c2ncccc2OCC(F)(F)F)n1 :: inactive
COC(=O)c1c(C(F)F)nc(C(F)(F)F)c(C2=NCCS2)c1CC(C)C :: inactive
CC1(C)C(C=C(Cl)Cl)C1C(=O)OC(C#N)c1cccc(Oc2ccccc2)c1 (centres undefined) :: inactive

Exam item: Returns: the outcome recorded for Cc1c(COC(=O)[C@@H]2[C@H](/C=C(\Cl)C(F)(F)F)C2(C)C)cccc1-c1ccccc1 in this assay.
Marked response: inactive

Exam item: Recorded call for CCCCC(C#N)(Cn1cncn1)c1ccc(Cl)cc1 (centres undefined) ?
Marked response: inactive

Exam item: Test call, this compound: N#Cc1c[nH]cc1-c1cccc2c1OC(F)(F)O2
Marked response: inactive

###

Read-out: Interferon-gamma inducible Protein 10 (IP10), CXCL10 (gene 3627)
PROTOCOL DESCRIPTION: BSK_KF3CT_IP10: BioMAP Diversity Plus: KF3CT Assay for Interferon-gamma inducible Protein 10 (IP10) Biomarker Activity (AID 2283068)
MEASUREMENT CONDITIONS: primary human keratinocytes with fibroblasts; actives raise or lower the signal
Procedure: BSK_KF3CT is a cell-based, multiplexed-readout assay that uses keratinocytes and foreskin fibroblasts, a human skin primary cell co-culture, with measurements taken at 24 hours after chemical dosing in a 96-well plate.BSK_KF3CT_IP10 is an assay component measured in the BSK_KF3CT assay. It measures IP-10 antibody related to regulation of gene expression using ELISA technology.Data from the assay component BSK_KF3CT_IP10 was analyzed into 1 assay endpoint. […]
The source made the active and inactive calls. The calls were made as follows: active = hit-call score of the fitted dose curve at least 0.9, where 1 is the maximum; inactive = score below 0.9.
Thanks in advance; please answer with one of these: active, inactive

Examples from the recorded data:
COC(=O)c1c(C(F)F)nc(C(F)(F)F)c(C2=NCCS2)c1CC(C)C :: active
N#Cc1c(Cl)cccc1Cl :: inactive

Okay, next one:
Exam item: // param item: C=CCOC(=O)C(C)(C)OC(=O)c1cc(-n2c(=O)cc(C(F)(F)F)n(C)c2=O)ccc1Cl ; yields the recorded call
Marked response: active
